Listed here: items and their measured Inhibition.
# System: HepG2
# assayInfo: GSK_TCMDC: Percent inhibition of human HepG2 cell line. Test compounds present at 10uM.
# Format: functional
reportedProperty: Inhibition (%)

[[record]]
compound = "CCc1c(C(=O)NC2CCC(N3CCC(c4ccccc4C)CC3)CC2)[nH]c2ccc(OC)cc12 (stereo unspecified)"
datavalue = 78

[[record]]
compound = "COc1ccc(-c2ccc(NC(=O)c3ccc(C#N)cc3)cc2)cc1CN(C)CCN(C)C.O=C(O)C(F)(F)F"
datavalue = 28

[[record]]
compound = "OC(CNCCCc1ccccc1)c1cc(OCc2ccccc2)cc(OCc2ccccc2)c1 (stereo unspecified)"
datavalue = 8

[[record]]
compound = "Cc1c(-c2ccc(C(=O)NC3CC(C)(C)NC(C)(C)C3)cc2)[nH]c2cc(Cl)c(Cl)cc12"
datavalue = 34

[[record]]
compound = "C=CCc1cc(Cc2cnc(N)nc2N)cc(CCC)c1OC"
datavalue = 3

[[record]]
compound = "COc1cc2nc(NCCc3ccccc3)nc(NCc3nccs3)c2cc1OC"
datavalue = 1

[[record]]
compound = "CCn1c(Sc2ccc([N+](=O)[O-])c(C#N)c2)nnc1-c1ccc(Cl)cc1"
datavalue = 2

[[record]]
compound = "C=CCn1c(=N)n(CC(O)c2ccc(Cl)c(Cl)c2)c2ccccc21.Cl (stereo unspecified)"
datavalue = 15

[[record]]
compound = "COc1ccccc1CCNc1nc(C)cc(N[C@@H](Cc2ccccc2)C(=O)NCCCOC(C)C)n1.O=C(O)C(F)(F)F"
datavalue = 10

[[record]]
compound = "COc1cc(NCC(CN)Cc2ccc3c(c2)OCO3)nc2ccccc12.Cl (stereo unspecified)"
datavalue = 41

[[record]]
compound = "O=C(Nc1cc(C(F)(F)F)cc(C(F)(F)F)c1)NC(CCCN1CCC2(CC1)OCc1ccccc12)c1ccc(Cl)c(Cl)c1 (stereo unspecified)"
datavalue = 26

[[record]]
compound = "CC(C)(C)OC(=O)/C=C(\\C(=O)OCc1ccc([N+](=O)[O-])cc1)c1csc(NC(c2ccccc2)(c2ccccc2)c2ccccc2)n1"
datavalue = 2

[[record]]
compound = "CC(C)CCCC(C)(C)NC[C@@H](O)[C@H](Cc1ccccc1)NC(=O)c1cc(NC(C)C)cc(N2CCCCS2(=O)=O)c1.O=CO"
datavalue = 2

[[record]]
compound = "COc1ccc2nccc([C@@H](O)CN3CCC(NCCc4c[nH]c5ccccc45)CC3)c2c1.O=C(O)C(=O)O"
datavalue = 0

[[record]]
compound = "O=C(/C=C/c1ccc(Cl)c(Cl)c1)NCCCCCN1CCCN(C(=O)Nc2cc(Cl)cc(Cl)c2)CC1"
datavalue = 53

[[record]]
compound = "COc1ccc(Nc2c3ccc(Cl)cc3nc3ccc(OC)cc23)cc1.Cl"
datavalue = 14

[[record]]
compound = "COc1ccc(S(=O)(=O)N2CCC3(CC2)OCC(=O)NC3c2ccc(Cl)c(Cl)c2)cc1 (stereo unspecified)"
datavalue = 0

[[record]]
compound = "Cc1cc(OCCCNc2nc(NCCc3ccc(O)cc3)nc(N3CCNCC3)n2)c(Cl)c(C)c1Cl.O=C(O)C(F)(F)F"
datavalue = 54

[[record]]
compound = "COc1cc(Cc2cnc(N)nc2N)cc(OCCCCCCN2C(=O)c3ccccc3C2=O)c1OC"
datavalue = 15

[[record]]
compound = "COc1ccc2ccccc2c1C=NN=c1cc[nH]c2ccc(F)cc12"
datavalue = 11

[[record]]
compound = "Cc1[nH]c(C)c(-c2ccc(-c3ccc(OC(F)(F)F)cc3)cc2)c(=O)c1Br"
datavalue = 33

[[record]]
compound = "COc1cccc(CCNc2nc(NCc3ccccc3)c3cc(OC)c(OC)cc3n2)c1"
datavalue = 20

[[record]]
compound = "CC(C)CNCc1cccc(-c2ccc(CNc3ccc(C(=O)c4ccccc4)cc3)cc2)c1.O=C(O)C(F)(F)F"
datavalue = 10

[[record]]
compound = "COc1ccc(N(C)Cc2cnc3nc(N)nc(N)c3n2)cc1"
datavalue = 15

[[record]]
compound = "CC(=O)Nc1ccc(OCCCCN(Cc2ccccc2OC(F)(F)F)c2ccc(C(F)(F)F)c(C#N)c2)c(Cl)c1"
datavalue = 11

[[record]]
compound = "O=C(/C=C/c1ccc(Cl)c(Cl)c1)N1CCC(CN2CCC(Cc3cc4ccccc4[nH]3)CC2)CC1"
datavalue = 49

[[record]]
compound = "O=[N+]([O-])c1cccc(-c2nc(-c3ccc(Br)cc3)[nH]c2-c2ccc(Br)cc2)c1"
datavalue = 6

[[record]]
compound = "COc1cccc(NC(=O)NC2CCN(c3ccnc(Nc4ccc(F)cc4)n3)C2)c1 (stereo unspecified)"
datavalue = 9

[[record]]
compound = "Cc1cc(OCCCN2CCN(CCN3CCOCC3)CC2)ccc1NC(=O)COc1ccc(Cl)cc1C(=O)c1cc(Cl)cc(C#N)c1"
datavalue = 30

[[record]]
compound = "CC(=O)c1ccc(NC(=O)C2c3ccccc3C(=O)N(CC(C)C)C2c2cccs2)cc1 (stereo unspecified)"
datavalue = 13

[[record]]
compound = "COc1ccc(F)cc1-c1ccc(C(=O)N2CCCN(c3ccc(C(F)(F)F)cn3)CC2)cc1"
datavalue = 4

[[record]]
compound = "Cc1cccc2nc(-c3ccc(-c4cccc(C(=O)NCCc5cn(C)cn5)c4)s3)[nH]c12"
datavalue = 27

[[record]]
compound = "CCCN1CCN(CC(O)CNC(=O)Nc2ccc(Cl)cc2)CC1.O=C(O)C(F)(F)F (stereo unspecified)"
datavalue = 6

[[record]]
compound = "C=CCOc1ccc(C2C(C(=O)OC)=C(C)NC3=C2C(=O)c2ccccc23)cc1OC (stereo unspecified)"
datavalue = 0

[[record]]
compound = "Fc1ccc2[nH]c(-c3ccc(-c4ccc(CNCCc5ccncc5)cc4)s3)nc2c1.O=C(O)C(F)(F)F"
datavalue = 34

[[record]]
compound = "Cc1ccc2sc(N(CCCn3ccnc3)C(=O)c3ccco3)nc2c1C.Cl"
datavalue = 9

